TGT: ~100 representative kinases (Homo sapiens, UniProt O14976)
Construct: Recombinant protein kinase domains with a concentration of 2 μM
Sequence (O14976 1-1311): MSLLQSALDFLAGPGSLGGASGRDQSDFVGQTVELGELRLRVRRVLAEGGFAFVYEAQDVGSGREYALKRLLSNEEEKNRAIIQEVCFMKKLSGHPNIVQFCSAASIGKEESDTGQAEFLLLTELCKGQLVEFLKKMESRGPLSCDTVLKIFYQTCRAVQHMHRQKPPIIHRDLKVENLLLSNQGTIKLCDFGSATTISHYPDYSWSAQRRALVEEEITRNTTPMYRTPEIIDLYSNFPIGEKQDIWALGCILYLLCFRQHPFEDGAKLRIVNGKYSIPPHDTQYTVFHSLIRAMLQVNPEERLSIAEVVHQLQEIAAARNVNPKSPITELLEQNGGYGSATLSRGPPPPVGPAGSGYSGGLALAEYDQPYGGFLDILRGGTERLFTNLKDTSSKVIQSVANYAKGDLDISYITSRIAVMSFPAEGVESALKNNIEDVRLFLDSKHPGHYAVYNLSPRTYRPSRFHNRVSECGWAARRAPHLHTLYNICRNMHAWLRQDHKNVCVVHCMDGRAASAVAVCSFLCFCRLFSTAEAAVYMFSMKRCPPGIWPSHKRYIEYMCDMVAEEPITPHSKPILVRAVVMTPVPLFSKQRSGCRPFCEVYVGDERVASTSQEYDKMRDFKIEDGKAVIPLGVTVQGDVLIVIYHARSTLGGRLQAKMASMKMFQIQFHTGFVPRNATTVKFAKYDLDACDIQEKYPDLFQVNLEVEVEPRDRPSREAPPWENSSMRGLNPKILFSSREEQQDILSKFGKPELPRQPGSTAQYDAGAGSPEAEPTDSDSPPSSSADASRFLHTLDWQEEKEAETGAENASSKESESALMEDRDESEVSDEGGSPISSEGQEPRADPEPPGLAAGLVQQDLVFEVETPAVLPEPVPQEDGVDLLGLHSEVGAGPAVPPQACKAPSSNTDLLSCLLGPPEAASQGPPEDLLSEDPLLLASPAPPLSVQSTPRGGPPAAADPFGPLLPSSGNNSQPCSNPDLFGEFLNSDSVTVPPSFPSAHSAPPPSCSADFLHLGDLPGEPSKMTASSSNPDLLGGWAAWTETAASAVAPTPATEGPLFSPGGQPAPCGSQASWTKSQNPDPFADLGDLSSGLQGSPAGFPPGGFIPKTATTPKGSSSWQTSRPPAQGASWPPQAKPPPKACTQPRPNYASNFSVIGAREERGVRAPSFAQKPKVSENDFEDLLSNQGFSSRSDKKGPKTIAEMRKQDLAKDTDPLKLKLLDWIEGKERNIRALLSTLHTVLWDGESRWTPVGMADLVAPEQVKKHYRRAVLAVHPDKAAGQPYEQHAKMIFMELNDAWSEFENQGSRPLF
ASSAY: DSF 100 kinase selectivity screen;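 also: compound tested at 20 µM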
Type: binding
TEST PARAMETERS: protein GAK; average of three replicates
QUANTITY KIND: dTm (K)
Numbers only, in K.

Some solved cases for reference:
MOLECULE: Cc1cc(NC(=O)C2(C(=O)Nc3ccc(F)cc3)CC2)cc(-c2c[nH]c3ncnc(N4CCOCC4)c23)c1 [Compound 6]
dTm (K): 0.83
--
MOLECULE: CNC(=O)c1cc(Oc2ccc(NC(=O)Nc3cc(C(C)(C)C)nn3-c3ccc4ncccc4c3)c(F)c2)ccn1 [Rebastinib, reference compound]
dTm (K): 4.99
--
MOLECULE: C[C@@H]1CN(c2cc(-c3n[nH]c4ccc(OC5(C)CC5)cc34)ncn2)C[C@H](C)O1 [MLi2]
dTm (K): 0.31

Query molecule follows.
Q: Can you look up the measured dTm of CCNc1nc(Nc2cc(F)c(C(=O)N3CCOCC3)cc2OC)ncc1C(F)(F)F [GNE-7915] for me?
Result: 0.77

###

TGT: ~100 representative kinases (Homo sapiens, UniProt Q13188)
Construct: Recombinant protein kinase domains with a concentration of 2 μM
Sequence (Q13188 whole entry, the tested form may be a part): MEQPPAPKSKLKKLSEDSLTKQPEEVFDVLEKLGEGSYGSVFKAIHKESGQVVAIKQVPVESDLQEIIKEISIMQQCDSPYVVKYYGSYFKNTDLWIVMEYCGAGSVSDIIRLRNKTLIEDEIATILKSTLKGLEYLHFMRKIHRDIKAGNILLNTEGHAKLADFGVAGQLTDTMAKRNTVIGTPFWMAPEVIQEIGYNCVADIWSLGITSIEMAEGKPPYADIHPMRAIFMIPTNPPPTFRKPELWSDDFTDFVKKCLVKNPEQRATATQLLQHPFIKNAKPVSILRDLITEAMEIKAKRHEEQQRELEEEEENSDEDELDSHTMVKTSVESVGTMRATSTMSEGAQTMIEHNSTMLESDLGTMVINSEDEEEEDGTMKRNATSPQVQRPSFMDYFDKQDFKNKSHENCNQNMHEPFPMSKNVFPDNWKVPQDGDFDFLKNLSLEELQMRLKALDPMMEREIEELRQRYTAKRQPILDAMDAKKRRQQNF
ASSAY: DSF 100 kinase selectivity screen;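 also: compound tested at 20 µM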
Format: binding
TEST PARAMETERS: Protein STK3; DSF; average of three replicates
Procedure: Recombinant protein kinase domains with a concentration of 2 μM were mixed with a 20 μM compound solution in dimethyl sulfoxide (DMSO), 20 mM Hepes (pH 7.5), and 500 mM NaCl. SYPRO Orange (5000×, Invitrogen) was added as a fluorescence probe (1μl/ml). Subsequently, temperature-dependent protein unfolding profiles were measured using the QuantStudio 5 realtime PCR machine (Thermo Fisher Scientific, Waltham, MA, USA). […] The temperature was raised with a step rate of 3°C/min. […]
Binary label based on dTm with cut-off 7 K: below gives true, not below gives false.

COMPOUND: C[C@@H]1CN(c2cc(-c3n[nH]c4ccc(OC5(C)CC5)cc34)ncn2)C[C@H](C)O1
CLASS: true

COMPOUND: COc1cc(NC(=O)C2(C(=O)Nc3cccc(-c4c[nH]c5ncnc(N6CCOCC6)c45)c3)CC2)ccc1F
CLASS: false

COMPOUND: COc1cc2c(Oc3ccc(NC(=O)C4(C(=O)Nc5ccc(F)cc5)CC4)cc3F)ccnc2cc1OCCCN1CCOCC1 [Foretinib, reference compound]
CLASS: false

COMPOUND: Cc1ccc(C(=O)Nc2ccc(CN3CCN(C)CC3)c(C(F)(F)F)c2)cc1C#Cc1cnc2[nH]ncc2c1 [GZD-824, reference compound]
CLASS: false

Q: Consider `O=C(Nc1cccc(-c2c[nH]c3ncnc(N4CCOCC4)c23)c1)C1(C(=O)Nc2ccc(F)c(Br)c2F)CC1` . Does its dTm lie strictly below 7 K?
Result: true
